Data credit: patent US10087166B2

Provide the recorded IC50 for the entries that follow.
ASSAYED TARGET: P70S6K (Homo sapiens, UniProt P23443, T412E)
Sequence (P23443 whole entry T412E): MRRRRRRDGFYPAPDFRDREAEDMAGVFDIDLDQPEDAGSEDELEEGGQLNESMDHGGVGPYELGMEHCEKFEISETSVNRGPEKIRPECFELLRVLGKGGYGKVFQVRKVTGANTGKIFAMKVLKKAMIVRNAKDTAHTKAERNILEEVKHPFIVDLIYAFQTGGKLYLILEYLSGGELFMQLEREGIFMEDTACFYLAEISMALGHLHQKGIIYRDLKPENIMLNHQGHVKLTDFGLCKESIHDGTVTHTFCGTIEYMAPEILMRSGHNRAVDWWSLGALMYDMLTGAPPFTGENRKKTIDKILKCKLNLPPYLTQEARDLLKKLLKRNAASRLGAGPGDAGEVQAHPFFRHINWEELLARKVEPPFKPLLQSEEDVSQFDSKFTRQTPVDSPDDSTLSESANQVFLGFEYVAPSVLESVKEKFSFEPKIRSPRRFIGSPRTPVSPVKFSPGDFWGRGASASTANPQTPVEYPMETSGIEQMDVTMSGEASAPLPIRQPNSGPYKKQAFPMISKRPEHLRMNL
ASSAY OVERVIEW: P70S6K enzyme assay
CONDITION PARAMETERS: P70S6K T412E mutant 3 nM, 24 μM ATP, FITC-AHA-AKRRRLSSLRA-OH substrate, 90 min at 25° C.; read-out: IC50p70S6K
Write the answer as a number in nM, unit excluded.

query: Would you kindly share the measured IC50 for COc1ccccc1C1CNCC1Nc1ncnc2c(C(N)=O)cccc12 (stereo not drawn) [compound 8] ?
result: 18

query: Would you kindly share the measured IC50 for NC(=O)c1cccc2c(N[C@H]3CNC[C@@H]3c3ccc(F)c(-c4cccnc4)c3)ncnc12 (racemic) [compound 119] ?
result: 15

query: Would you kindly share the measured IC50 for Cc1nc(N[C@@H]2CNC[C@H]2c2cccc(F)c2)c2cccc(C(N)=O)c2n1 [compound 84] ?
result: 1.7

query: Would you kindly share the measured IC50 for NC(=O)c1cccc2c(N[C@H]3CNC[C@@H]3c3ccc(OC(F)(F)F)cc3)ncnc12 [compound 60] ?
result: 120

query: Would you kindly share the measured IC50 for Cc1cc([C@H]2CNC[C@@H]2Nc2ncnc3c(C(N)=O)cccc23)ccc1F [compound 75] ?
result: 64

query: Would you kindly share the measured IC50 for Cc1nc(N[C@@H]2CNCC[C@H]2c2ccc(C(F)(F)F)cc2)c2cccc(C(N)=O)c2n1 (racemic) [compound 141] ?
result: 2.9
